target: human ether-à-go-go-related gene (hERG) potassium channel (human); assay: primary screen, population patch clamp on CHO cells stably expressing hERG; higher = less effect of the substance;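 further: peak tail current of the secondary pulse compared with the same well before compound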
Sequence (Q12809 whole entry, looked up): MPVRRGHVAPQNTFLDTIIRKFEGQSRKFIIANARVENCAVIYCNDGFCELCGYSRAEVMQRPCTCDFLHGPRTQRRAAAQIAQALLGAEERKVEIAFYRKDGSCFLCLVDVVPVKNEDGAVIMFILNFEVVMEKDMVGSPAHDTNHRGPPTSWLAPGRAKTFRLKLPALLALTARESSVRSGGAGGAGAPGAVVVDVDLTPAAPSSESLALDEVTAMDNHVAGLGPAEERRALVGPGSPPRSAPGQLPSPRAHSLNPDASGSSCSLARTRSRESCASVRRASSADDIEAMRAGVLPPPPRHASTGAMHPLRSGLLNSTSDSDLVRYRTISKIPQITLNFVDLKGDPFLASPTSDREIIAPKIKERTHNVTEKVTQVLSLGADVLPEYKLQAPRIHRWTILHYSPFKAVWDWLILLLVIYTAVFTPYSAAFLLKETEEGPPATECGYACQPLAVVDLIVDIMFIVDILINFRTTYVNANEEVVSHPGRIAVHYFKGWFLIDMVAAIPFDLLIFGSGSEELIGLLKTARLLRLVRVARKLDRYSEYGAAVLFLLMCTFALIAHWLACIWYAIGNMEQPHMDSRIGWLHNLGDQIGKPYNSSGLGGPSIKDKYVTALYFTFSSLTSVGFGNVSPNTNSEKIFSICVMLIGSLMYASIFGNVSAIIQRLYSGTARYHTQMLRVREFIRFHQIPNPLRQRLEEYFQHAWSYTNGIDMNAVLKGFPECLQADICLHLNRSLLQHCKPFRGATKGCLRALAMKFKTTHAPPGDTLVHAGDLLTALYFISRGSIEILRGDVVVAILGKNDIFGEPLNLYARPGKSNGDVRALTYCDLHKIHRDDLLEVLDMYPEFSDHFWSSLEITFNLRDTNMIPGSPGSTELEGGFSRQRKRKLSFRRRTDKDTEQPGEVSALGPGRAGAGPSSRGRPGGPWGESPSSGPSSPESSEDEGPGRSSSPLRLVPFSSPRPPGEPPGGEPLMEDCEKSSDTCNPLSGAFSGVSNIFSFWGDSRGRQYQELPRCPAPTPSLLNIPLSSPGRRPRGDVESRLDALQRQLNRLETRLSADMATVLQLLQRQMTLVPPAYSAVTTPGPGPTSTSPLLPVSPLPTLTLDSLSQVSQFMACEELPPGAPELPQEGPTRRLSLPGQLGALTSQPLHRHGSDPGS
In all, about 310,000 compounds went through this assay and about 14,000 (4.5%) showed an effect of 50% or more. The effect is printed as a negative number. Only a selection was taken, and strong results are over-represented in it overall.
Reported hERG current change (%, negative = inhibition) at 10uM by item:
measured-metric: hERG current change (%, negative = inhibition) at 10uM (%)

>>> test_result("CCCc1[nH]n(-c2ccc([N+](=O)[O-])cc2)c(=O)c1C=NCCc1ccc(OC)c(OC)c1")
-19.4
>>> test_result("CN(Cc1cn(C)nc1-c1ccc(Oc2ccccc2)cc1)Cc1cnc2ccccn12")
-54
>>> test_result("COc1ccc(N(CC(=O)N2c3ccccc3CC2C)S(=O)(=O)c2c(C)nn(C)c2C)cc1 (stereo not shown)")
-25.9
>>> test_result("CCCc1[nH]n(-c2ccc([N+](=O)[O-])cc2)c(=O)c1C=NCCN1CCNCC1")
-47.1
>>> test_result("CCCCCCNCc1cccc(Br)c1.Cl")
-11.3
>>> test_result("CCCc1[nH]n(-c2ccc([N+](=O)[O-])cc2)c(=O)c1C=NCCCn1ccnc1")
-76.4
>>> test_result("Cl.OCCN(CCO)CC(O)COc1ccc2c(c1)OCO2 (stereo not shown)")
2.18
>>> test_result("CCOC(=O)C1=C(c2ccccc2)OC(N)=C(C#N)C1c1cccs1 (stereo not shown)")
3.11
>>> test_result("Cc1ccc(C(=O)N2CCN(c3ccccn3)CC2)cc1")
-14.3
>>> test_result("c1ccc(Cn2ncc3c(Nc4ccccc4)ncnc32)cc1")
6.01
>>> test_result("O=C(Nc1ccc2c(c1)CCC2)c1cnc(Cl)c(Cl)c1")
0.674
>>> test_result("Cc1ccc(C(=O)N2CCN(c3nc4ccccc4n3C)CC2)cc1")
-70.3
>>> test_result("CCCOC(=O)c1ccc(O)cc1")
16.5
>>> test_result("N#Cc1cc2ccccc2nc1SCC(=O)NC1CC1")
4.58
>>> test_result("O=[N+]([O-])c1ccc(OCC(O)CN(CCO)CCO)cc1 (stereo not shown)")
-54.8
>>> test_result("O=C(N1CCN(c2ccc(F)cc2)CC1)C12CC3CC(CC(C3)C1)C2")
5.05
>>> test_result("COc1ccc(CN2CCC(n3nccc3NC(=O)c3cccc(F)c3)CC2)cc1O")
-80.4
>>> test_result("COC(=O)c1ccc(OCC(O)CN(CC(C)C)CC(C)C)cc1 (stereo not shown)")
-4.37
>>> test_result("CCCc1[nH]n(-c2ccc([N+](=O)[O-])cc2)c(=O)c1C(C)=NCc1ccncc1")
-52.4
>>> test_result("CCCN(CCC)CC(O)COc1ccc([N+](=O)[O-])cc1 (stereo not shown)")
-77.1
>>> test_result("CCN(CC)c1ccc(CNCCc2ccc(F)cc2)cc1.Cl")
-58.8
>>> test_result("O=C(Nc1ccnn1C1CCN(Cc2ccccc2OC(F)F)CC1)c1cccc(F)c1")
-52.4
>>> test_result("Cc1ccc(S(=O)(=O)NNC(=O)C2COc3ccccc3O2)cc1 (stereo not shown)")
5.24
>>> test_result("CCCN(CCC)CC(O)COc1ccc2c(c1)OCO2.Cl (stereo not shown)")
-28.8
>>> test_result("CC(=NCCCn1ccnc1)c1c(O)n(-c2ccccc2)c(=O)[nH]c1=O")
5.91
>>> test_result("N#C/C(=C\\c1ccc(OCc2ccc(Br)cc2)cc1)C(=O)Nc1cccc(C(=O)O)c1")
17.8
>>> test_result("Cc1cc(C)cc(NC(=O)NCC(O)COc2ccc([N+](=O)[O-])cc2)c1 (stereo not shown)")
-42.3
>>> test_result("CCCCCC1CCC(C(=O)N2CCOCC2)CC1 (stereo not shown)")
-2.44
